test: Neutralization of an aqueous solution of SAM-e tosylate with buffering agents to pH 7; format: physicochemical; conditions: SAMe tosylate 400 mg/100 mL after addition of the neutralizing agent
property-name: Final pH

Looking up O=C([O-])O.[Na+] [Sodium bicarbonate] , I found its Final pH recorded as 7.0

Reported Final pH of [O]=[Mg] [Light magnesium oxide] : 7.1

Documented Final pH of NCCCC[C@H](N)C(=O)O : 4
